Target: Histone deacetylase
Test: Inhibition of HDAC in human HeLa cell extracts using Boc-Lys(Ac)-AM as substrate by fluorescence based analysis
Non-standard residues stand in square brackets, D forms with d. Residues, ends and D or L forms follow the SMILES beside them. *: point of attachment. Ahx = NCCCCCC(=O)O; NHOH = ON*
recorded_endpoint: IC50 (µM)
Quick reminder: number only, in µM, skip the unit.

CSCC[C@H](NC(=O)[C@H](CCCNC(=N)N)NC(=O)[C@H](CC(C)C)NC(=O)[C@H](CCCNC(=N)N)NC(=O)[C@H](CCSC)NC(=O)[C@H](CC(C)C)NC(=O)[C@H](CCCNC(=N)N)NC(=O)[C@H](CC(C)C)NC(=O)[C@H](CC(C)C)NC(=O)[C@H](CCCNC(=N)N)NC(C)=O)C(=O)N[C@@H](CC(C)C)C(=O)N[C@@H](CC(C)C)C(=O)N[C@@H](CCCNC(=N)N)C(=O)N[C@@H](CC(C)C)C(=O)NCCCCCC(=O)NO (Ac-RLLRLMRLRMLLRL[Ahx]-{NHOH}) | 0.446

Next, consider the following molecule.
Query: Please look up its IC50: CC(=O)N[C@@H](CCCNC(=N)N)C(=O)N[C@@H](CC(C)C)C(=O)N[C@@H](CC(C)C)C(=O)N[C@@H](CCCNC(=N)N)C(=O)N[C@@H](CC(C)C)C(=O)N[C@H]1CC[S+](C)Cc2cccc(c2)C[S+](C)CC[C@@H](C(=O)N[C@@H](CC(C)C)C(=O)N[C@@H](CC(C)C)C(=O)N[C@@H](CCCNC(=N)N)C(=O)N[C@@H](CC(C)C)C(=O)NCCCCCC(=O)NO)NC(=O)[C@H](CCCNC(=N)N)NC(=O)[C@H](CC(C)C)NC(=O)[C@H](CCCNC(=N)N)NC1=O (some centres undefined)
Result: 0.31
